# Tested Target: GFRα1-RET (Homo sapiens)
# Sequence (P56159 25-429 limits assumed): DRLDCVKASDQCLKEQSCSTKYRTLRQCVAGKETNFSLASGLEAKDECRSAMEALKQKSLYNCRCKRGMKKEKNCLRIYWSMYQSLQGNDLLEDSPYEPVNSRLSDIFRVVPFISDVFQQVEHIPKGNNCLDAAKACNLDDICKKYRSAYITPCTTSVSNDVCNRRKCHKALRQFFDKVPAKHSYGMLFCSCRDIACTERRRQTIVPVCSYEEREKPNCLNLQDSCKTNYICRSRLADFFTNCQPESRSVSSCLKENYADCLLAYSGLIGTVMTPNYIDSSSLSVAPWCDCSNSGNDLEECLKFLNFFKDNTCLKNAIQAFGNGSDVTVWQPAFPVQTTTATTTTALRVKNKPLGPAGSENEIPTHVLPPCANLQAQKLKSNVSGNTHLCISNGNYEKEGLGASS
# Experimental Details: Elk1 luciferase reporter-gene assay in cells expressing GFRα1-RET
# Recorded Conditions: agonist/activator activity of Elk1 signaling; MG87 murine fibroblast stably transfected with PathDetect Elk-1, GFRα1 and RET; 6 concentrations, duplicate, two independent runs
pEC50: −log10 of the molar value.

>  <Compound>
CC(C)(C)CS(=O)(=O)c1cc(Cl)c(O)c(N2[C@@H]3CC[C@H]2CN(C(=O)c2ccc(F)cc2Cl)C3)c1

>  <pEC50>
> 6.00

$$$$
>  <Compound>
COc1ccc(S(=O)(=O)C2CCCC2)cc1N1[C@@H]2CC[C@H]1CN(C(=O)c1ccc(F)cc1Cl)C2

>  <pEC50>
5.00 to 6.00

$$$$
>  <Compound>
COc1ccc(S(=O)(=O)CC2CCCC2)cc1N1CCN(C(=O)c2ccc(F)cc2Cl)CC1

>  <pEC50>
5.00 to 6.00

$$$$
>  <Compound>
CC(C)(C)CS(=O)(=O)c1cc(Cl)c(Cl)c(N2[C@@H]3CC[C@H]2CN(C(=O)c2ccc(F)cc2Cl)C3)c1

>  <pEC50>
> 6.00

$$$$
>  <Compound>
COc1ccc(S(=O)(=O)C2CCN(CCc3ccc(F)cc3)CC2)cc1N1[C@@H]2CC[C@H]1CN(C(=O)c1ccc(F)cc1Cl)C2

>  <pEC50>
5.00 to 6.00

$$$$
>  <Compound>
CCC(CC)S(=O)(=O)c1ccc(OC)c(N2CCN(C(=O)c3ccc(F)cc3C(F)(F)F)CC2)c1

>  <pEC50>
4.30 to 5.00

$$$$
>  <Compound>
COc1ccc(S(=O)(=O)CCC2CCCC2)cc1N1[C@@H]2CC[C@H]1CN(C(=O)c1ccc(F)cc1Cl)C2

>  <pEC50>
5.00 to 6.00

$$$$
>  <Compound>
CCC(C)S(=O)(=O)c1ccc(OC)c(N2C3CCC2CN(C(=O)c2ccc(F)cc2Cl)C3)c1 (racemic)

>  <pEC50>
5.00 to 6.00

$$$$
>  <Compound>
Cc1cc(S(=O)(=O)CC(C)(C)C)cc(N2[C@@H]3CC[C@H]2CN(C(=O)c2ccc(F)cc2Cl)C3)c1O

>  <pEC50>
5.00 to 6.00

$$$$
>  <Compound>
COc1ccc(S(=O)(=O)CC2CC2)cc1N1CCN(C(=O)c2ccc(F)cc2Cl)CC1

>  <pEC50>
5.00 to 6.00

$$$$
>  <Compound>
O=C(c1ccc(F)cc1Cl)N1C[C@H]2CC[C@@H](C1)N2c1cc(S(=O)(=O)C2CCN(c3ccccc3)CC2)ccc1O

>  <pEC50>
> 6.00

$$$$
>  <Compound>
COc1ccc(S(=O)(=O)CC(C)(C)C)cc1N1[C@@H]2CC[C@H]1CN(C(=O)c1ccc(F)cc1Cl)C2

>  <pEC50>
5.00 to 6.00

$$$$
>  <Compound>
CCCC(C)S(=O)(=O)c1ccc(OC)c(N2CCN(C(=O)c3ccc(F)cc3Cl)CC2C)c1 (racemic)

>  <pEC50>
5.00 to 6.00

$$$$
>  <Compound>
COc1ccc(S(=O)(=O)CC(C)C)cc1N1CCN(C(=O)c2ccc(F)cc2C(F)(F)F)CC1

>  <pEC50>
4.30 to 5.00

$$$$
>  <Compound>
COc1ccc(S(=O)(=O)C(C)CCCc2ccccc2)cc1N1C2CCC1CN(C(=O)c1ccc(F)cc1Cl)C2 (racemic)

>  <pEC50>
5.00 to 6.00

$$$$
>  <Compound>
COc1ccc(S(=O)(=O)C2CCCCC2)cc1N1CCN(C(=O)c2ccc(F)cc2C(F)(F)F)CC1

>  <pEC50>
4.30 to 5.00

$$$$
>  <Compound>
COc1ccc(S(=O)(=O)C2COC2)cc1N1CCN(C(=O)c2ccc(F)cc2Cl)CC1

>  <pEC50>
4.30 to 5.00

$$$$
>  <Compound>
O=C(c1ccc(F)cc1Cl)N1C[C@H]2CC[C@@H](C1)N2c1cc(S(=O)(=O)C2CCN(CCc3ccccc3)CC2)ccc1O

>  <pEC50>
5.00 to 6.00

$$$$
>  <Compound>
CCC(CCCc1ccccc1)S(=O)(=O)c1ccc(OC)c(N2C3CCC2CN(C(=O)c2ccc(F)cc2Cl)C3)c1 (racemic)

>  <pEC50>
5.00 to 6.00

$$$$
>  <Compound>
COc1ccc(S(=O)(=O)C2CCN(c3ccccc3)CC2)cc1N1[C@@H]2CC[C@H]1CN(C(=O)c1ccc(F)cc1Cl)C2

>  <pEC50>
> 6.00

$$$$
>  <Compound>
COc1ccc(S(=O)(=O)C(C)C)cc1N1CCN(C(=O)c2ccc(F)cc2Cl)CC1

>  <pEC50>
4.30 to 5.00

$$$$
>  <Compound>
COc1ccc(S(=O)(=O)C(C)CCc2ccccc2)cc1N1C2CCC1CN(C(=O)c1ccc(F)cc1Cl)C2 (racemic)

>  <pEC50>
5.00 to 6.00

$$$$
>  <Compound>
COc1ccc(S(=O)(=O)C2CCN(CCc3ccccc3)CC2)cc1N1[C@@H]2CC[C@H]1CN(C(=O)c1ccc(F)cc1Cl)C2

>  <pEC50>
5.00 to 6.00

$$$$
>  <Compound>
COc1ccc(S(=O)(=O)CC2CCC2)cc1N1CCN(C(=O)c2ccc(F)cc2Cl)CC1

>  <pEC50>
4.30 to 5.00

$$$$
>  <Compound>
CC(C)(C)CS(=O)(=O)c1cc(Cl)c(OCCO)c(N2[C@@H]3CC[C@H]2CN(C(=O)c2ccc(F)cc2Cl)C3)c1

>  <pEC50>
5.00 to 6.00

$$$$
>  <Compound>
CCC(CC)CS(=O)(=O)c1ccc(OC)c(N2[C@@H]3CC[C@H]2CN(C(=O)c2ccc(F)cc2Cl)C3)c1

>  <pEC50>
5.00 to 6.00

$$$$
>  <Compound>
COc1ccc(S(=O)(=O)C2CCCC2)cc1N1CCN(C(=O)c2ccc(F)cc2Cl)CC1C (racemic)

>  <pEC50>
5.00 to 6.00

$$$$
>  <Compound>
COc1ccc(S(=O)(=O)C2CCC2)cc1N1[C@@H]2CC[C@H]1CN(C(=O)c1ccc(F)cc1Cl)C2

>  <pEC50>
5.00 to 6.00

$$$$
>  <Compound>
CCCCS(=O)(=O)c1ccc(OC)c(N2[C@@H]3CC[C@H]2CN(C(=O)c2ccc(F)cc2Cl)C3)c1

>  <pEC50>
5.00 to 6.00

$$$$
